# Target system: Human adrenergic α2B receptor (Homo sapiens, UniProt P18089)
# Sequence (P18089 1-450): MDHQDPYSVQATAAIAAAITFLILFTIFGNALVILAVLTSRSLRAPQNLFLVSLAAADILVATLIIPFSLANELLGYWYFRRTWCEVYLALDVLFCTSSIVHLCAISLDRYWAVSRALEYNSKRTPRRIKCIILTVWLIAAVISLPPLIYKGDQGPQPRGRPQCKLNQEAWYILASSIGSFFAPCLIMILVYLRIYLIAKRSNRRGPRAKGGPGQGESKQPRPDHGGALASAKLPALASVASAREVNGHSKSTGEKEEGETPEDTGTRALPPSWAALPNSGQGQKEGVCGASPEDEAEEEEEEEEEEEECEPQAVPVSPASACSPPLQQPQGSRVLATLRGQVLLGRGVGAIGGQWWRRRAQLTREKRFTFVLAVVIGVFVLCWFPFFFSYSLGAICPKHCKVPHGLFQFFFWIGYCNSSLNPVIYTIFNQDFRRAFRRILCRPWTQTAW
# Procedure text: Radioligand binding, adrenergic α2B (Protocol Group B)
# Design: purchased Milipore (Millipore)
# Condition parameters: 10 nM compound; Protocol Group B; read-out: Percentage inhibition of ligand binding, Adrenergic α2B (10 nM)
Recorded inhibition at 0.01 µM determines the label; the label ranges are class 0: < 20%; class 1: ≥ 20% and < 70%; class 2: ≥ 70%

INSERT INTO measurements (compound, group_label) VALUES
  ('CC(O)(Cn1c2c(c3cc(Cl)cc(F)c31)CN1CCCC1C2)c1cccnc1 (single isomer, unassigned) [63c]', 'class 1'),
  ('CCOC(Cn1c2c(c3cc(C)ccc31)CN(C)CC2)c1ccncc1 (single isomer, unassigned) [43a]', 'class 1'),
  ('Cc1ccc2c(c1)c1c(n2CC(C)(O)c2ccc(N)nc2)CCN(C)C1 (stereo not shown)', 'class 1');

query: Classify this compound: Cc1ccc2c(c1)c1c(n2CC(O)c2ccncc2)CNC2CCCC12 (single isomer, unassigned) [34a]
result: class 1

query: What about this compound? CC(O)(Cn1c2c(c3cc(Cl)cc(F)c31)C1CCCN1CC2)c1cccnc1 (single isomer, unassigned) [53a]
result: class 2

----------
# Target system: Human adrenergic α1B receptor (Homo sapiens, UniProt P35368)
# Sequence (P35368 1-520): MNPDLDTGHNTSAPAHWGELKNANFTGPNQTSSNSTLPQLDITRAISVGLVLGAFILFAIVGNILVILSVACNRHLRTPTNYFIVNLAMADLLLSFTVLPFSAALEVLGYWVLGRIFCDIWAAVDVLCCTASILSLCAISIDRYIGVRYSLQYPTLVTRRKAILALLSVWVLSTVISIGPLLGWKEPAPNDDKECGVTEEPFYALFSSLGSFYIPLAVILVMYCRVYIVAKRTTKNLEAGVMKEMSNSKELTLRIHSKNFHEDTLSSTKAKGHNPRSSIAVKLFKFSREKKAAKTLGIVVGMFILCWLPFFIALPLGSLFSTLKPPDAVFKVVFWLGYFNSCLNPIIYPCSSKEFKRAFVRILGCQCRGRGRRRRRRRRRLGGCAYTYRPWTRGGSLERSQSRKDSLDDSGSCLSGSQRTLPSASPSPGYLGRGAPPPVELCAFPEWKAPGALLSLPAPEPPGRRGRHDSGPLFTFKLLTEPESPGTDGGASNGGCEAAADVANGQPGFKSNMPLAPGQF
# Procedure text: Radioligand binding, adrenergic α1B (Protocol Group B)
# Design: purchased Milipore (Millipore)
# Condition parameters: 0.1 μM compound; Protocol Group B; 0.1 µM
Item-by-item account of Percentage inhibition of ligand binding, Adrenergic α1B (0.1 μM)
Put down the number, then write its unit next to it.

INSERT INTO results (compound, reading) VALUES
  ('Cc1cc(F)c2c(c1)c1c(n2CC(C)(O)c2cccnc2)CC2CCCN2C1 (single isomer, unassigned) [61b]', '−7%'),
  ('Cc1cc(C)c2c(c1)c1c(n2CC(C)(O)c2cccnc2)CCN2CCCC12 (single isomer, unassigned) [44b]', '69%');

query: Any idea what Percentage inhibition of ligand binding, Adrenergic α1B (0.1 μM) was measured for Cc1ccc2c(c1)c1c(n2CC(C)(O)c2cccnc2)CC(CO)N(C)C1 (single isomer, unassigned) [15b] ?
result: 12%

----------
# Target system: Human adrenergic α1B receptor (Homo sapiens)
# Procedure text: Radioligand binding, adrenergic α1B (Protocol Group B)
# Design: purchased Milipore (Millipore)
# Condition parameters: 0.1 μM compound; Protocol Group B; read-out: Percentage inhibition of ligand binding, Adrenergic α1B (0.1 μM)
Result type: inhibition at 0.1 µM (%)
Provide only the numeric value, understood in %.

Worked cases, answers included:
INSERT INTO measurements (molecule, reading) VALUES
  ('CN1CCc2c(c3cccc(Cl)c3n2CC(O)c2cccnc2)C1 (stereo not shown) [compound 20]', 10),
  ('CC(O)(Cn1c2c(c3cc(Cl)cc(F)c31)CN1CCCC1C2)c1ccncc1 (single isomer, unassigned) [86c]', -5),
  ('CCCOC(Cn1c2c(c3cc(C)ccc31)CN(C)CC2)c1ccncc1 (single isomer, unassigned) [42a]', 44);

# context switch: different molecule, same inhibition at 0.1 µM
query: Query (molecule): Cc1ccc2c(c1)c1c(n2CC(C)(O)c2ccc(OCC3CC3)nc2)CCN(C)C1 (stereo not shown) [compound 56] ; field requested: inhibition at 0.1 µM
result: 12

----------
# Procedure text: Stability in the presence of dog hepatocytes
# Assay type: in vitro ADME, Beagle dog
# Condition parameters: male, Beagle, dog, cryopreserved hepatocytes, pH 7.4, dog hepatocytes, 37° C., average of duplicates, ^a = 0-120 minute time points, read-out: T1/2 Dog
The compounds listed here are annotated with their half-life at 5 µM.
Please state the figure in h; there is no need to write the unit.

Below, 3 compounds whose answers are already recorded.
INSERT INTO results (compound, reading) VALUES
  ('Cc1ccc2c(c1)c1c(n2CC(O)c2ccncc2)CCN2CCCC12 (single isomer, unassigned) [Compound No. 178d]', 4),
  ('Cc1ccc2c(c1)c1c(n2C[C@@H](OC2CCCC2)c2ccncc2)CCN2CCC[C@H]12', 0.8),
  ('Cc1cc(F)c2c(c1)c1c(n2CC(C)(O)c2cccnc2)CCN2CCCC12 (centres unmarked) [Compound No. 79a]', 3.02);

query: Requested field: half-life at 5 µM. Item: Cc1cc(Cl)c2c(c1)c1c(n2CC(C)(O)c2ccncc2)CCN2CCCC12 (single isomer, unassigned) [91a]
result: 1.37

query: Lookup Cc1cc2c3c(n(CC(C)(O)c4ccncc4)c2cc1Cl)CCN1CCCC31 (single isomer, unassigned) [50a]
result: 2.03

----------
The following compounds are listed with their measured Percentage inhibition of ligand binding, Adrenergic α2B (30 nM) values.
# Target system: Human adrenergic α2B receptor (Homo sapiens, UniProt P18089)
# Sequence (P18089 1-450): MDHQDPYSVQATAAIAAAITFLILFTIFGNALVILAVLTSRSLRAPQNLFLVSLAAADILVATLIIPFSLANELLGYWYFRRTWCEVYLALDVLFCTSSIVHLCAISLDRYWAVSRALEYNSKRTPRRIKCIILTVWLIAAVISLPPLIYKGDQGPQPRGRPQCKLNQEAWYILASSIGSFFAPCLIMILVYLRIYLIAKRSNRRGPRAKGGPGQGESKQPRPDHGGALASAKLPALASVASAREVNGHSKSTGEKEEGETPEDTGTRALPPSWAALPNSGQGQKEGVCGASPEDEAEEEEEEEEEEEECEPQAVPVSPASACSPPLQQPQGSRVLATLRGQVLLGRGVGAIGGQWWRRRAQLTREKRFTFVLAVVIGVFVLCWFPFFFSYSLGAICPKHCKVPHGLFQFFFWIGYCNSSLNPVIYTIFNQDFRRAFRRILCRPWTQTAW
# Procedure text: Radioligand binding, adrenergic α2B (Protocol Group B)
# Set-up: purchased Milipore (Millipore)
# Condition parameters: 30 nM compound; Protocol Group B; 0.03 µM
Answer as a quantity: numeral, then unit.

Below: 4 compounds and their reported Percentage inhibition of ligand binding, Adrenergic α2B (30 nM).
INSERT INTO measurements (compound, reading) VALUES
  ('Cc1cc(F)cc2c3c(n(CC(C)(O)c4cccnc4)c12)CCN1CCCC31 (single isomer, unassigned) [75a]', '40%'),
  ('Cc1ccc2c(c1)c1c(n2CC(C)(O)c2cccnc2)CC(CO)N(C)C1 (single isomer, unassigned) [15b]', '−11%'),
  ('Cc1cc2c3c(n(CC(C)(O)c4ccncc4)c2cc1Cl)CCN1CCCC31 (single isomer, unassigned) [50b]', '100%'),
  ('Cc1cc(F)c2c(c1)c1c(n2CC(C)(O)c2ccncc2)CC2CCCN2C1 (single isomer, unassigned) [62a]', '45%');

query: Percentage inhibition of ligand binding, Adrenergic α2B (30 nM) lookup needed for CC(O)(Cn1c2c(c3cc(Cl)cc(F)c31)CN1CCCC1C2)c1cccnc1 (single isomer, unassigned) [63a] , thanks.
result: 55%

query: And then CC(O)(Cn1c2c(c3cc(F)ccc31)C1CCCN1CC2)c1ccncc1 (single isomer, unassigned) [31c] , what is it?
result: −2%

query: // repeat for Cc1ccc2c(c1)c1c(n2CC(C)(O)c2ccc(F)cc2)CC2CCC1N2C (single isomer, unassigned) [102a] and report
result: 13%
